- Tested on: Staphylococcus epidermidis
- ASSAY NOTES: Antibacterial activity against methicillin sensitive Staphylococcus epidermidis clinical isolate 20-1 assessed as inhibition of bacterial growth incubated for 24 hrs by CLSI protocol based broth microdilution method
- Assay type: functional
MIC reference

Worked cases, answers included:
molecule=CN[C@H](CC(C)C)C(=O)N[C@H]1C(=O)N[C@@H](CC(N)=O)C(=O)N[C@H]2C(=O)N[C@H]3C(=O)N[C@H](C(=O)N[C@H](C(=O)NCCCc4cn(-c5ccc(OC(F)F)cc5)nn4)c4cc(O)cc(O)c4-c4cc3ccc4O)[C@H](O)c3ccc(c(Cl)c3)Oc3cc2cc(c3O[C@@H]2O[C@H](CO)[C@@H](O)[C@H](O)[C@H]2O[C@H]2C[C@](C)(N)[C@H](O)[C@H](C)O2)Oc2ccc(cc2Cl)[C@H]1O system_name="Staphylococcus epidermidis" readout_value="0.25 µg/mL"
molecule=CN[C@H](CC(C)C)C(=O)N[C@H]1C(=O)N[C@@H](CC(N)=O)C(=O)N[C@H]2C(=O)N[C@H]3C(=O)N[C@H](C(=O)N[C@H](C(=O)O)c4cc(O)cc(O)c4-c4cc3ccc4O)[C@H](O)c3ccc(c(Cl)c3)Oc3cc2cc(c3O[C@@H]2O[C@H](CO)[C@@H](O)[C@H](O)[C@H]2O[C@H]2C[C@](C)(NCCCc3cn(Cc4ccc(Cl)c(Cl)c4)nn3)[C@H](O)[C@H](C)O2)Oc2ccc(cc2Cl)[C@H]1O system_name="Staphylococcus epidermidis" readout_value="≤ 0.03 µg/mL"
molecule="C[C@H]1COc2c(N3CCN(C)CC3)c(F)cc3c(=O)c(C(=O)O)cn1c23 [LEVOFLOXACIN ANHYDROUS]" system_name="Staphylococcus epidermidis" readout_value="4 µg/mL"
molecule=CN[C@H](CC(C)C)C(=O)N[C@H]1C(=O)N[C@@H](CC(N)=O)C(=O)N[C@H]2C(=O)N[C@H]3C(=O)N[C@H](C(=O)N[C@H](C(=O)O)c4cc(O)cc(O)c4-c4cc3ccc4O)[C@H](O)c3ccc(c(Cl)c3)Oc3cc2cc(c3O[C@@H]2O[C@H](CO)[C@@H](O)[C@H](O)[C@H]2O[C@H]2C[C@](C)(NCc3ccc(C#Cc4ccccc4)cc3)[C@H](O)[C@H](C)O2)Oc2ccc(cc2Cl)[C@H]1O system_name="Staphylococcus epidermidis" readout_value="≤ 0.015 µg/mL"
molecule=CN[C@H](CC(C)C)C(=O)N[C@H]1C(=O)N[C@@H](CC(N)=O)C(=O)N[C@H]2C(=O)N[C@H]3C(=O)N[C@H](C(=O)N[C@H](C(=O)O)c4cc(O)cc(O)c4-c4cc3ccc4O)[C@H](O)c3ccc(c(Cl)c3)Oc3cc2cc(c3O[C@@H]2O[C@H](CO)[C@@H](O)[C@H](O)[C@H]2O[C@H]2C[C@](C)(NCc3ccc(Oc4ccccc4)cc3)[C@H](O)[C@H](C)O2)Oc2ccc(cc2Cl)[C@H]1O system_name="Staphylococcus epidermidis" readout_value="0.125 µg/mL"

Q: Using known records, supply MIC for "CN[C@H](CC(C)C)C(=O)N[C@H]1C(=O)N[C@@H](CC(N)=O)C(=O)N[C@H]2C(=O)N[C@H]3C(=O)N[C@H](C(=O)N[C@H](C(=O)O)c4cc(O)cc(O)c4-c4cc3ccc4O)[C@H](O)c3ccc(c(Cl)c3)Oc3cc2cc(c3O[C@@H]2O[C@H](CO)[C@@H](O)[C@H](O)[C@H]2O[C@H]2C[C@](C)(NCc3ccc(Oc4cc(Cl)cc(Cl)c4)cc3)[C@H](O)[C@H](C)O2)Oc2ccc(cc2Cl)[C@H]1O"
A: ≤ 0.015 µg/mL

Q: Using known records, supply MIC for "CN[C@H](CC(C)C)C(=O)N[C@H]1C(=O)N[C@@H](CC(N)=O)C(=O)N[C@H]2C(=O)N[C@H]3C(=O)N[C@H](C(=O)N[C@H](C(=O)NCCCc4cn(Cc5ccc(Cl)c(Cl)c5)nn4)c4cc(O)cc(O)c4-c4cc3ccc4O)[C@H](O)c3ccc(c(Cl)c3)Oc3cc2cc(c3O[C@@H]2O[C@H](CO)[C@@H](O)[C@H](O)[C@H]2O[C@H]2C[C@](C)(N)[C@H](O)[C@H](C)O2)Oc2ccc(cc2Cl)[C@H]1O"
A: 0.25 µg/mL

Q: Using known records, supply MIC for "CN[C@H](CC(C)C)C(=O)N[C@H]1C(=O)N[C@@H](CC(N)=O)C(=O)N[C@H]2C(=O)N[C@H]3C(=O)N[C@H](C(=O)N[C@H](C(=O)O)c4cc(O)cc(O)c4-c4cc3ccc4O)[C@H](O)c3ccc(c(Cl)c3)Oc3cc2cc(c3O[C@@H]2O[C@H](CO)[C@@H](O)[C@H](O)[C@H]2O[C@H]2C[C@](C)(NCCCc3cn(C4CN(C(c5ccccc5)c5ccccc5)C4)nn3)[C@H](O)[C@H](C)O2)Oc2ccc(cc2Cl)[C@H]1O"
A: ≤ 0.03 µg/mL

====

MIC reference
- Tested on: Enterococcus faecium
- ASSAY NOTES: Antibacterial activity against Enterococcus faecium clinical isolate 20-15 assessed as inhibition of bacterial growth incubated for 24 hrs by CLSI protocol based broth microdilution method
- Assay type: functional

Worked cases, answers included:
compound=CN[C@H](CC(C)C)C(=O)N[C@H]1C(=O)N[C@@H](CC(N)=O)C(=O)N[C@H]2C(=O)N[C@H]3C(=O)N[C@H](C(=O)N[C@H](C(=O)O)c4cc(O)cc(O)c4-c4cc3ccc4O)[C@H](O)c3ccc(c(Cl)c3)Oc3cc2cc(c3O[C@@H]2O[C@H](CO)[C@@H](O)[C@H](O)[C@H]2O[C@H]2C[C@](C)(NCc3ccc(C#Cc4ccccc4)cc3)[C@H](O)[C@H](C)O2)Oc2ccc(cc2Cl)[C@H]1O system_name="Enterococcus faecium" readout_value="≤ 0.015 µg/mL"
compound="C[C@H]1COc2c(N3CCN(C)CC3)c(F)cc3c(=O)c(C(=O)O)cn1c23 [LEVOFLOXACIN ANHYDROUS]" system_name="Enterococcus faecium" readout_value="> 64 µg/mL"

Q: Using known records, supply MIC for "CN[C@H](CC(C)C)C(=O)N[C@H]1C(=O)N[C@@H](CC(N)=O)C(=O)N[C@H]2C(=O)N[C@H]3C(=O)N[C@H](C(=O)N[C@H](C(=O)O)c4cc(O)cc(O)c4-c4cc3ccc4O)[C@H](O)c3ccc(c(Cl)c3)Oc3cc2cc(c3O[C@@H]2O[C@H](CO)[C@@H](O)[C@H](O)[C@H]2O[C@H]2C[C@](C)(NCCCc3cn(Cc4ccc(Cl)c(Cl)c4)nn3)[C@H](O)[C@H](C)O2)Oc2ccc(cc2Cl)[C@H]1O"
A: ≤ 0.03 µg/mL

====

MIC reference
- Tested on: Enterococcus faecium
- ASSAY NOTES: Antibacterial activity against Enterococcus faecium clinical isolate 20-15 assessed as inhibition of bacterial growth incubated for 24 hrs by CLSI protocol based broth microdilution method
- Type: functional

Worked cases, answers included:
test_smiles=CN[C@H](CC(C)C)C(=O)N[C@H]1C(=O)N[C@@H](CC(N)=O)C(=O)N[C@H]2C(=O)N[C@H]3C(=O)N[C@H](C(=O)N[C@H](C(=O)NCCCc4cn(Cc5ccc(Cl)c(Cl)c5)nn4)c4cc(O)cc(O)c4-c4cc3ccc4O)[C@H](O)c3ccc(c(Cl)c3)Oc3cc2cc(c3O[C@@H]2O[C@H](CO)[C@@H](O)[C@H](O)[C@H]2O[C@H]2C[C@](C)(N)[C@H](O)[C@H](C)O2)Oc2ccc(cc2Cl)[C@H]1O readout_value="≤ 0.015 µg/mL"
test_smiles=CN[C@H](CC(C)C)C(=O)N[C@H]1C(=O)N[C@@H](CC(N)=O)C(=O)N[C@H]2C(=O)N[C@H]3C(=O)N[C@H](C(=O)N[C@H](C(=O)O)c4cc(O)cc(O)c4-c4cc3ccc4O)[C@H](O)c3ccc(c(Cl)c3)Oc3cc2cc(c3O[C@@H]2O[C@H](CO)[C@@H](O)[C@H](O)[C@H]2O[C@H]2C[C@](C)(NCc3ccc(Oc4ccccc4)cc3)[C@H](O)[C@H](C)O2)Oc2ccc(cc2Cl)[C@H]1O readout_value="≤ 0.03 µg/mL"
test_smiles=CN[C@H](CC(C)C)C(=O)N[C@H]1C(=O)N[C@@H](CC(N)=O)C(=O)N[C@H]2C(=O)N[C@H]3C(=O)N[C@H](C(=O)N[C@H](C(=O)O)c4cc(O)cc(O)c4-c4cc3ccc4O)[C@H](O)c3ccc(c(Cl)c3)Oc3cc2cc(c3O[C@@H]2O[C@H](CO)[C@@H](O)[C@H](O)[C@H]2O[C@H]2C[C@](C)(NCCCc3cn(C4CN(C(c5ccccc5)c5ccccc5)C4)nn3)[C@H](O)[C@H](C)O2)Oc2ccc(cc2Cl)[C@H]1O readout_value="≤ 0.03 µg/mL"
test_smiles=CN[C@H](CC(C)C)C(=O)N[C@H]1C(=O)N[C@@H](CC(N)=O)C(=O)N[C@H]2C(=O)N[C@H]3C(=O)N[C@H](C(=O)N[C@H](C(=O)NCCCc4cn(-c5ccc(OC(F)F)cc5)nn4)c4cc(O)cc(O)c4-c4cc3ccc4O)[C@H](O)c3ccc(c(Cl)c3)Oc3cc2cc(c3O[C@@H]2O[C@H](CO)[C@@H](O)[C@H](O)[C@H]2O[C@H]2C[C@](C)(N)[C@H](O)[C@H](C)O2)Oc2ccc(cc2Cl)[C@H]1O readout_value="≤ 0.015 µg/mL"

Moving on to the next molecule.
Q: Using known records, supply MIC for "CN[C@H](CC(C)C)C(=O)N[C@H]1C(=O)N[C@@H](CC(N)=O)C(=O)N[C@H]2C(=O)N[C@H]3C(=O)N[C@H](C(=O)N[C@H](C(=O)O)c4cc(O)cc(O)c4-c4cc3ccc4O)[C@H](O)c3ccc(c(Cl)c3)Oc3cc2cc(c3O[C@@H]2O[C@H](CO)[C@@H](O)[C@H](O)[C@H]2O[C@H]2C[C@](C)(NCc3ccc(Oc4cc(Cl)cc(Cl)c4)cc3)[C@H](O)[C@H](C)O2)Oc2ccc(cc2Cl)[C@H]1O"
A: ≤ 0.015 µg/mL
